target-entity: HDAC3 (Homo sapiens, UniProt O15379)
Sequence (O15379 whole entry, species assumed): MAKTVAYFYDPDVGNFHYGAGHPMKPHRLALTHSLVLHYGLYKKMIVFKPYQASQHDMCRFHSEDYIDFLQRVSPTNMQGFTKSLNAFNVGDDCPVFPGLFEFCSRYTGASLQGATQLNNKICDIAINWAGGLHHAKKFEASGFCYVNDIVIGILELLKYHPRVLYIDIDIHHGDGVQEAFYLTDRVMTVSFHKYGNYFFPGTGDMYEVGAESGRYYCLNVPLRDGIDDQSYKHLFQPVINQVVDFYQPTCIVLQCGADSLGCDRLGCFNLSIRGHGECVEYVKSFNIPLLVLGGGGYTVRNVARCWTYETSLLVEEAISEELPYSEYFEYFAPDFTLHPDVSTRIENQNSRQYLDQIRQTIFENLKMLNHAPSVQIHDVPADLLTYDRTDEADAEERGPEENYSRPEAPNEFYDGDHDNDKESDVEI
Sequence (Q9Y618 395-489 partner limits assumed, species assumed): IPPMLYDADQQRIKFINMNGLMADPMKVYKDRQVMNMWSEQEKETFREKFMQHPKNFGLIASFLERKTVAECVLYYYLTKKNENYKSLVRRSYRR
protocol-text: HDAC biochemical activity measurement (fluorescent substrate deacetylation)
condition-parameters: IC50 (μM) HDAC3, HDAC3 enzyme, 37°, 30 minutes
measure: IC50 (µM)
Note: unit µM is implicit; provide only the numeric part.

Look over these answered cases.
C/C=C1\NC(=O)c2ccc(SC)c(n2)CNC(=O)C[C@@H](/C=C/CCSC(=O)CCC)OC(=O)[C@H](C(C)C)NC1=O :: 0.063
C/C=C1\NC(=O)c2cc(SC)cc(n2)CNC(=O)C[C@@H](/C=C/CCSC(=O)CCCC)OC(=O)[C@H](C(C)C)NC1=O :: 0.051

Next item in the queue.
Exam item: Observed IC50 on HDAC3 (Homo sapiens, UniProt O15379) for C/C=C1\NC(=O)c2ccc(SC)c(n2)CNC(=O)C[C@@H](/C=C/CCSC(=O)CCCC)OC(=O)[C@H](C(C)C)NC1=O , please.
Marked response: 0.053
